- ASSAY NAME: Human pregnane X receptor (PXR) small molecule agonists, qHTS cell viability counter screen (AID 1346977); also: nearly all actives have a fitted effect of over 50% in size
- ASSAY SETUP: PXR-Luc HepG2 viability, CellTiter-Fluor, 24 h; series mostly up to 92.4 µM
Inconclusive results are not listed. Activity calls are given as the source filed them. Calls follow the shape of the dose curve; as a rule, active = well fitted cell-killing curve with a large enough effect in the repeat runs; inconclusive = weak or mixed curves, or effect the other way; inactive = flat fitted curve, though single readings scatter.
# valid calls are active, inactive; nothing else

* CCC(CO)(CO)[N+](=O)[O-] | inactive
* CCCCC[C@H](O)/C=C/[C@H]1[C@H](O)CC(=O)[C@@H]1C/C=C\CCCC(=O)O | inactive
* CN1CCCN(C(c2ccccc2)c2ccc(Cl)cc2)CC1 (stereo not drawn) | active

Challenge: // return assay outcome for CCN(CC)c1cccc(O)c1
Response given: inactive

Challenge: // return assay outcome for COc1ccc(-n2nc(C(F)F)cc2-c2ccc(S(C)=O)cc2)cc1 (stereo not drawn)
Response given: inactive
